TARGET_OF_ASSAY: human A3AR (Homo sapiens)
Construct: expressed in transfected cells
Sequence (P0DMS8 whole entry): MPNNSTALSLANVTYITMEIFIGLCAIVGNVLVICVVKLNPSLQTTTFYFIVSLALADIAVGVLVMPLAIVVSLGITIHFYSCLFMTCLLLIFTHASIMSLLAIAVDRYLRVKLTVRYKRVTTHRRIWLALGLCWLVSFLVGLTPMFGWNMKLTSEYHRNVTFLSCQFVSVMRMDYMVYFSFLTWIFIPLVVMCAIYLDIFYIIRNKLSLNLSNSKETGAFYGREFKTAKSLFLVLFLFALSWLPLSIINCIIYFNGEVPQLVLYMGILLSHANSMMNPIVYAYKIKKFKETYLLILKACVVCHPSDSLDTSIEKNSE
ASSAY_PROTOCOL: LOPAC library primary screen: single concentration (10 μM) inhibition of 25 nM CA200645 binding, PHERAstar FS
Task for the reader: assign each of the following compounds its reported % 25 nM CA200645 binding.
Only the number, expressed in %, is required.

## Task # % 25 nM CA200645 binding lookup, item C[N+]1(CCCCC[N+]2(C)CCCC2)CCCC1.O=C([O-])C(O)C(O)C(=O)O.O=C([O-])C(O)C(O)C(=O)O [Pentolinium di[L(+)-tartrate]]
## Result 106.3

## Task # % 25 nM CA200645 binding lookup, item CN(C)S(=O)(=O)c1ccc2c(c1)/C(=C/c1cc3c([nH]1)CCCC3)C(=O)N2 [SU 6656]
## Result 17.3

## Task # % 25 nM CA200645 binding lookup, item C#CCn1c(=O)c2c(ncn2C)n(C)c1=O [3,7-Dimethyl-1-propargylxanthine]
## Result 94.8

## Task # % 25 nM CA200645 binding lookup, item [Cl-].[Li+] [Lithium Chloride]
## Result 99.9

## Task # % 25 nM CA200645 binding lookup, item O=[N+]([O-])c1cc2nc(O)c(O)nc2cc1[N+](=O)[O-] [DNQX]
## Result 85.0

## Task # % 25 nM CA200645 binding lookup, item CCc1ccc2c(-c3cccc(Cl)c3)nc(=O)n(CC)c2n1 [YM 976]
## Result 93.5

## Task # % 25 nM CA200645 binding lookup, item COc1cc2c(cc1OC)C1CC(=O)C(CC(C)C)CN1CC2 (stereo not drawn) [Tetrabenazine]
## Result 91.3

## Task # % 25 nM CA200645 binding lookup, item NC(=O)c1ccccc1 [Benzamide]
## Result 99.1

## Task # % 25 nM CA200645 binding lookup, item O=C1C(SCCO)=C(SCCO)C(=O)c2ccccc21 [NSC 95397]
## Result 96.3
